system: Abeta oligomer effects on membrane trafficking in primary rat neurons; assay: Primary neuron-based functional screening assay, membrane trafficking (Example EE); assay type: cell-based; settings: Rattus norvegicus, Neuron; FIG. 2B; read-out: EC50, inhibition of oligomer effects on membrane trafficking
Readout: EC50 (µM)
Enter your answer as a number in µM; do not include the unit.

Form: compound = COc1cc(CCC(C)NCc2ccc(C(F)(F)F)cc2)ccc1O (stereo not shown) ; EC50 = 7
